# Test system: CCRIS mutagenicity, Ames/micronucleus/aberration tests
# methodDescription: CCRIS mutagenicity studies
# assaySetup: Test System: AMES SALMONELLA TYPHIMURIUM; Strain/Indicator: TA1537; Metabolic Activation: HAMSTER, LIVER, S-9, AROCLOR 1254 (10%); Method: PREINCUBATION
Active and inactive are the calls of the source. How the calls were made is not given here.
Outcomes: 1 (yes) for active, 0 (no) for inactive

compound	assignedClass
Nc1ccc([N+](=O)[O-])cc1O	1 (yes)
O=C(O)CCC(=O)OC[C@@H](NC(=O)C(Cl)Cl)[C@H](O)c1ccc([N+](=O)[O-])cc1	0 (no)
Clc1c(Cl)c(Br)c2c(c1Cl)-c1nc-2nc2[n-]c(nc3nc(nc4[n-]c(n1)c1c(Cl)c(Br)c(Cl)c(Br)c41)-c1c(Cl)c(Cl)c(Br)c(Cl)c1-3)c1c(Br)c(Cl)c(Br)c(Cl)c21.[Cu+2]	0 (no)
O=C1OC(=O)c2ccccc21	0 (no)
CC(C)Nc1ccccc1	0 (no)
CC1=CC(C)(C)Nc2ccccc21	0 (no)
C=CC(=O)OCC(C)C	0 (no)
Nc1nc(N)c2nc(-c3ccccc3)c(N)nc2n1	0 (no)
CC(CCN(C)C)N(C)C (configuration not stated)	0 (no)
Nc1cc([N+](=O)[O-])ccc1O	0 (no)
Cc1ccc(N)cc1C	0 (no)
CC(C)Nc1ccc(Nc2ccccc2)cc1	0 (no)

====

# Test system: CCRIS mutagenicity, Ames/micronucleus/aberration tests
# methodDescription: CCRIS mutagenicity studies
# assaySetup: Test System: AMES SALMONELLA TYPHIMURIUM; Strain/Indicator: TA98; Metabolic Activation: NONE; Method: PREINCUBATION
The source made the active and inactive calls. How the calls were made is not given here.
Labels: 1 for active, 0 for inactive

molecule	assignedClass
CN(C)C(=N)N(C)C	0
CC1=NCCc2c1[nH]c1cc(O)ccc21	0
O=C(Cl)c1ccccc1F	0
Cc1nc2ccc(N)cc2nc1C	1
Clc1nncc2cccnc12	0
CC1CNCC(C)O1 (stereo unspecified)	0
C=CCOC(=O)c1ccccc1C(=O)OCC=C	0
O=P(O)(O)OP(=O)(O)OP(=O)(O)O	0
c1ccc(CSCc2ccccc2)cc1	0
[Li+]	0
Cc1c2ccccc2c(COS(=O)(=O)O)c2ccccc12	1
O.O.O=N[O-].O=N[O-].O=N[O-].O=N[O-].[K+].[K+].[Pt]	0
ClC(Cl)(Cl)Cl	0
CC(C)Nc1ccccc1	0
O=Cc1cccc(Cl)c1	0
CC(CCN(C)C)N(C)C (stereo unspecified)	0

====

# Test system: CCRIS mutagenicity, Ames/micronucleus/aberration tests
# methodDescription: CCRIS mutagenicity studies
# assaySetup: Test System: AMES SALMONELLA TYPHIMURIUM; Strain/Indicator: TA1535; Metabolic Activation: NONE; Method: STANDARD PLATE
The source made the active and inactive calls. No rule for the calls is given here.

compound	mutagenic call
COc1ccc([C@@H]2CC(=O)c3c(O)cc(O[C@@H]4O[C@H](CO[C@@H]5O[C@@H](C)[C@H](O)[C@@H](O)[C@H]5O)[C@@H](O)[C@H](O)[C@H]4O)cc3O2)cc1O	inactive; negative
Oc1ccc2c(c1)OCO2	inactive; negative
Cc1c(N)cc([N+](=O)[O-])c(N)c1C	inactive; negative
COC(=O)[C@H]1O[C@@H]1c1ccccc1	inactive; negative
N=C1CCC(=N)c2c1c(O)c1ccccc1c2O	inactive; negative
c1cnccn1	inactive; negative
N#CSCSC#N	inactive; negative
CC/C(=C(\c1ccccc1)c1ccc(OCCN(C)C)cc1)c1ccccc1	inactive; negative
OO	inactive; negative
CC1=C[C@H](O)[C@H]2C[C@@H]1C2(C)C	inactive; negative
CC(C)NCC(O)COc1cccc2c1OCC(O)C2 (stereo not drawn)	inactive; negative
NC(=O)c1cccc2cccnc12	inactive; negative
CCCNc1snc2ccccc12	inactive; negative

====

# Test system: CCRIS mutagenicity, Ames/micronucleus/aberration tests
# methodDescription: CCRIS mutagenicity studies
# assaySetup: Test System: AMES SALMONELLA TYPHIMURIUM; Strain/Indicator: TA1537; Metabolic Activation: RAT, LIVER, S-9, AROCLOR 1254; Method: PREINCUBATION
# Excerpt: The CCRIS database contains chemical records with carcinogenicity, mutagenicity, tumor promotion, and tumor inhibition test results. It was developed by the National Cancer Institute (NCI). Data are derived from studies cited in primary journals, current awareness tools, NCI reports, and other sources. Test results have been reviewed by experts in carcinogenesis and mutagenesis. CCRIS provides historical information from the years 1985 - 2011. It is no longer updated. […]
Active and inactive are the calls of the source. The rule behind the calls is not given here.

compound	system	mutagenic call
Nc1cc([N+](=O)[O-])ccc1O	CCRIS mutagenicity, Ames/micronucleus/aberration tests	inactive; negative
OB(O)O	CCRIS mutagenicity, Ames/micronucleus/aberration tests	inactive; negative
C=CCc1ccc(O)c(OC)c1	CCRIS mutagenicity, Ames/micronucleus/aberration tests	inactive; negative
O=Cc1ccco1	CCRIS mutagenicity, Ames/micronucleus/aberration tests	inactive; negative
CCCCCCc1ccc(O)cc1O	CCRIS mutagenicity, Ames/micronucleus/aberration tests	inactive; negative
BrC(Br)Br	CCRIS mutagenicity, Ames/micronucleus/aberration tests	inactive; negative
Nc1ccc([N+](=O)[O-])cc1O	CCRIS mutagenicity, Ames/micronucleus/aberration tests	active; positive
C=C(C)[C@H]1CC=C(C)C(=O)C1	CCRIS mutagenicity, Ames/micronucleus/aberration tests	inactive; negative
O=C1CCCCC1	CCRIS mutagenicity, Ames/micronucleus/aberration tests	inactive; negative
COc1cc(-c2ccc(N)c(OC)c2)ccc1N	CCRIS mutagenicity, Ames/micronucleus/aberration tests	inactive; negative
CC(C)c1ccc2oc3nc(N)c(C(=O)O)cc3c(=O)c2c1	CCRIS mutagenicity, Ames/micronucleus/aberration tests	inactive; negative
OC1CCCCC1	CCRIS mutagenicity, Ames/micronucleus/aberration tests	inactive; negative
CN(C)[C@@H]1C(=O)C(C(N)=O)=C(O)[C@@]2(O)C(=O)C3=C(O)c4c(O)cccc4[C@@](C)(O)[C@H]3[C@H](O)[C@@H]12	CCRIS mutagenicity, Ames/micronucleus/aberration tests	inactive; negative
CCOc1ccc(NC(N)=O)cc1	CCRIS mutagenicity, Ames/micronucleus/aberration tests	inactive; negative
CC1CNCC(C)O1 (stereo unspecified)	CCRIS mutagenicity, Ames/micronucleus/aberration tests	inactive; negative
Clc1cccc(Cl)c1	CCRIS mutagenicity, Ames/micronucleus/aberration tests	inactive; negative
C=CCc1ccc(OC)c(OC)c1	CCRIS mutagenicity, Ames/micronucleus/aberration tests	inactive; negative
CCOCc1c(O)cc2c(c1O)C(=O)c1ccccc1C2=O	CCRIS mutagenicity, Ames/micronucleus/aberration tests	active; positive
[Li+]	CCRIS mutagenicity, Ames/micronucleus/aberration tests	inactive; negative
O=C(O)C1C(C(=O)O)C2(Cl)C(Cl)=C(Cl)C1(Cl)C2(Cl)Cl (stereo unspecified)	CCRIS mutagenicity, Ames/micronucleus/aberration tests	inactive; negative
CC(=O)OC1CC(C)OC(C)O1 (stereo unspecified)	CCRIS mutagenicity, Ames/micronucleus/aberration tests	inactive; negative
C=CCOC(=O)c1ccccc1C(=O)OCC=C	CCRIS mutagenicity, Ames/micronucleus/aberration tests	inactive; negative
C=CC1CC=CCC1 (stereo unspecified)	CCRIS mutagenicity, Ames/micronucleus/aberration tests	inactive; negative
C1COCOC1	CCRIS mutagenicity, Ames/micronucleus/aberration tests	inactive; negative
O=C(Cl)c1ccccc1F	CCRIS mutagenicity, Ames/micronucleus/aberration tests	inactive; negative
[CH3][Pb]([CH3])([CH3])[CH3]	CCRIS mutagenicity, Ames/micronucleus/aberration tests	inactive; negative

====

# Test system: CCRIS mutagenicity, Ames/micronucleus/aberration tests
# methodDescription: CCRIS mutagenicity studies
# assaySetup: Test System: AMES SALMONELLA TYPHIMURIUM; Strain/Indicator: TA98; Metabolic Activation: RAT, LIVER, S-9, AROCLOR 1254; Method: STANDARD PLATE
# Source text: The CCRIS database contains chemical records with carcinogenicity, mutagenicity, tumor promotion, and tumor inhibition test results. It was developed by the National Cancer Institute (NCI). Data are derived from studies cited in primary journals, current awareness tools, NCI reports, and other sources. Test results have been reviewed by experts in carcinogenesis and mutagenesis. CCRIS provides historical information from the years 1985 - 2011. It is no longer updated. […]
Activity calls are given as the source filed them. No rule for the calls is given here.

molecule	mutagenic call
CNC(=O)Nc1ccccc1	inactive; negative
Oc1ccc2c(c1)OCO2	inactive; negative
CC(=O)Nc1ccccc1C	inactive; negative
Cc1cc(C(C)(C)C)c(O)c(C(C)(C)C)c1	inactive; negative
O=[N+]([O-])c1ccc2[nH]c3ccc([N+](=O)[O-])cc3c2c1	active; positive
CC1(C)CCC[C@]2(C)C(C=O)C(C=O)=CC[C@@H]12 (stereo not given in full)	inactive; negative
Cc1ccc2c(c1Nc1ccccc1)C(=O)c1ccccc1C2=O	inactive; negative
COc1cc(N=Nc2ccccc2)ccc1N=Nc1c(S(=O)(=O)O)cc2ccc(N)cc2c1O	active; positive
O=S1OC[C@@H]2[C@H](CO1)[C@]1(Cl)C(Cl)=C(Cl)[C@@]2(Cl)C1(Cl)Cl (stereo not given in full)	inactive; negative
OC/C=C/c1ccccc1	inactive; negative
